test: A CellTox Green Cytotoxicity Assay to monitor cytotoxicity in HEK293 cells - 32 hour (AID 1224881); further: nearly all actives have a fitted effect of over 40% in size
conditions_used: CellTox Green fluorescence; series mostly up to 76.8 µM
Records with an inconclusive call do not appear. Calls of active or inactive are those of the source. The call rests on the fitted dose curve; in most records, active means well fitted activation curve with a large enough effect in the repeat runs; inconclusive means weak or mixed curves; inactive means flat fitted curve, though single readings scatter.
Log the outcome using a class from YES for active, NO for inactive

What did the test return for `CC(=O)OC1CCCCC1` ?
NO

Same question, `CCN(CC)CCNc1ccc(CO)c2sc3ccccc3c(=O)c12` this time
NO

Same question, CCC(C)c1ccccc1 (configuration not stated) this time
NO

Same question, C=CC(C)(CCC=C(C)C)OC(=O)/C=C/c1ccccc1 (configuration not stated) this time
YES

Same question, `CCCC(=O)OCC(COC(=O)CCC)OC(=O)CCC` this time
NO

Same question, `CC(C)CCOCCC(C)C` this time
NO

Same question, CCCCOC(=O)C(C)CC (configuration not stated) this time
NO

====

test: qHTS RealTime-Glo MT Cell Viability Assay in HepG2 cells - 32 hour (AID 1224877); further: nearly all actives have a fitted effect of over 55% in size
conditions_used: RealTime-Glo luminescence; series mostly up to 76.8 µM
Inconclusive results are not listed. The source made the active and inactive calls. Calls follow the shape of the dose curve; as a rule, active = well fitted cell-killing curve with a large enough effect in the repeat runs; inconclusive = weak or mixed curves; inactive = flat fitted curve, though single readings scatter.
Log the outcome using a class from active, inactive

What did the test return for `CCc1ccc(O)c(C(C)(C)C)c1` ?
inactive

Same question, `Nc1cc(Cl)c([N+](=O)[O-])cc1O` this time
inactive

Same question, `CCCCCCCCCCCCCCCC` this time
inactive

Same question, `CCC1CCCCC1` this time
inactive

Same question, CN1[C@@H]2CC[C@@H]1CC(OC(=O)C(CO)c1ccccc1)C2 (stereo partly specified) this time
inactive

Same question, CCNc1nc(NC(C)CC)nc(OC)n1 (stereo unspecified) this time
inactive

Same question, `CCc1c(C(=O)O)c(=O)cnn1-c1ccc(Cl)cc1` this time
inactive

Same question, `CC(=O)OC1CCCCC1` this time
inactive

Same question, `CCOC(=O)[C@@](C)(N)Cc1ccc(O)c(O)c1` this time
inactive

Same question, CC1CNCC(C)O1 (stereo unspecified) this time
inactive

Same question, `Brc1ccccn1` this time
inactive

Same question, CC(NCCC(c1ccccc1)c1ccccc1)c1ccccc1 (stereo unspecified) this time
active

Same question, `CCCN(CCc1cccs1)[C@H]1CCc2c(O)cccc2C1` this time
inactive

Same question, `C[C@H]1O[C@@H](O[C@H]2[C@@H](O)C[C@H](O[C@H]3[C@@H](O)C[C@H](O[C@H]4CC[C@@]5(C)[C@H](CC[C@@H]6[C@@H]5C[C@@H](O)[C@]5(C)[C@@H](C7=CC(=O)OC7)CC[C@]65O)C4)O[C@@H]3C)O[C@@H]2C)C[C@H](O)[C@@H]1O` this time
inactive

Same question, `Cc1cccc(N(C)C)c1` this time
inactive

Same question, `Oc1cc2ccccc2cc1O` this time
inactive

Same question, `CC(C)(C)CC(C)(C)c1ccccc1O` this time
inactive

Same question, CCN(CC)CCOc1ccc(C(O)(Cc2ccc(Cl)cc2)c2ccc(C)cc2)cc1 (stereo unspecified) this time
active

Same question, `CCOC(=O)N1CCC(=C2c3ccc(Cl)cc3CCc3cccnc32)CC1` this time
inactive

Same question, `CC(=O)C=O` this time
inactive

Same question, `CCCCCCCCCCCC(=O)N(CC)CC` this time
inactive

====

test: qHTS assay to identify small molecule antagonists of the glucocorticoid receptor (GR) signaling pathway - cell viability counter screen (AID 720693); further: nearly all actives have a fitted effect of over 55% in size
conditions_used: GR-bla HeLa viability, CellTiter-Glo luminescence, 18 h, with 5 nM dexamethasone present; series mostly up to 58.5 µM
Records with an inconclusive call do not appear. The source made the active and inactive calls. Calls follow the shape of the dose curve; as a rule, active = well fitted cell-killing curve with a large enough effect in the repeat runs; inconclusive = weak or mixed curves, or effect the other way; inactive = no such curve, though single readings can be large or run the other way.
experimental_readout: outcome

Nc1cc(Cl)c([N+](=O)[O-])cc1O; inactive
CCCCOc1ccc(C(=O)CCN2CCCCC2)cc1; inactive
Cc1cccc(C)c1NC(=O)CN1CCN(CCCC(c2ccc(F)cc2)c2ccc(F)cc2)CC1; inactive
